# credit: the RNAGym collection of RNA variant scans (doi:10.1073/pnas.2313332121)

Entries annotated with measured polymerase ribozyme fitness (log ratio)
B1: TPR 5TU (parent)
chain: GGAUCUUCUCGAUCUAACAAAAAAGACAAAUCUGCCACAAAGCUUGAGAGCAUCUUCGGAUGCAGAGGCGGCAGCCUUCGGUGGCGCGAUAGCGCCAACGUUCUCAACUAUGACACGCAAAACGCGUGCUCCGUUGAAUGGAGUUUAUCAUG

- Variants of: B1
- METHOD SUMMARY: polymerase ribozyme fitness, log enrichment relative to wild type (log ratio); higher = more active; in vitro selection for triplet polymerase activity
This sample holds only a part of the variants without activity.
Please give the numeric answer without any surrounding text.

As a guide, the following entries are already answered.
MUTATION DESCRIPTOR	polymerase ribozyme fitness (log ratio)
A37C C54U C96U	-0.249
A60G U90A C95A G117A	-3.93
C14A A37G C93U	-4.13
C27U C51U U53A U101G	-3.98
U130G	-2.99
C125G U127A	-3.68
A47C U82G A142C	-2.54
C10U A28U G94A U127G	-4.04

Look up polymerase ribozyme fitness (log ratio) for this variant: U53A U102G G126A
-3.76

Look up polymerase ribozyme fitness (log ratio) for this variant: U53A G62C G84A G136A
-3.58

Look up polymerase ribozyme fitness (log ratio) for this variant: A52G C57A G84A
-0.599

Look up polymerase ribozyme fitness (log ratio) for this variant: U55G G83U C95U A147C
-1.88

Look up polymerase ribozyme fitness (log ratio) for this variant: C35U C54G C85A
-3.81

Look up polymerase ribozyme fitness (log ratio) for this variant: U55G C93A A98U A142U
-3.92

Look up polymerase ribozyme fitness (log ratio) for this variant: A91C A113G
-4.15

Look up polymerase ribozyme fitness (log ratio) for this variant: A21U C51U A106U
-2.08
